Attribute: solubility at 24 h
Assay: Solubility of compound by pH 7 measured for 24 hrs by UPLC analysis
Type: physicochemical
Details: buffer
The reply should be a number in µM, with the unit left off.

O=C(O)c1cncc(CN2CCC[C@H](O[C@H](CO)c3cc(Cl)cc(Cl)c3)[C@@H]2c2ccccc2)c1: 74

solubility at 24 h measured on Clc1cc(Cl)cc(CO[C@H]2CCCN(Cc3ncc[nH]3)[C@H]2c2ccccc2)c1 = 120

So, O=C(O)c1ccc2c(CN3CCC[C@H](O[C@H](CO)c4cc(Cl)cc(Cl)c4)[C@@H]3c3ccccc3)c[nH]c2c1 ? Its solubility at 24 h was 128

Lab note: measured solubility at 24 h of COC(=O)Nn1c(C[C@H]2CCC[C@H](OCc3cc(C(F)(F)F)cc(C(F)(F)F)c3)[C@@H]2c2ccccc2)n[nH]c1=O was 154

Per the record, OC[C@@H](O[C@H]1CCCN(Cc2cccc3nonc23)[C@H]1c1ccccc1)c1cc(Cl)cc(Cl)c1 has solubility at 24 h of 154

Briefly, solubility at 24 h measured for O=C(O)c1ccc(CN2CCC[C@H](O[C@H](CO)c3cc(Cl)cc(Cl)c3)[C@@H]2c2ccccc2)cc1 : 85

// field: solubility at 24 h; key: OC[C@@H](O[C@H]1CCCN(Cc2ncc[nH]2)[C@H]1c1ccccc1)c1cc(Cl)cc(Cl)c1 ; value = 60

###

Below, each entry is listed alongside its reported pEC50.
Target: cGMP-dependent protein kinase 1 (Homo sapiens, UniProt Q13976)
Sequence (Q13976 whole entry): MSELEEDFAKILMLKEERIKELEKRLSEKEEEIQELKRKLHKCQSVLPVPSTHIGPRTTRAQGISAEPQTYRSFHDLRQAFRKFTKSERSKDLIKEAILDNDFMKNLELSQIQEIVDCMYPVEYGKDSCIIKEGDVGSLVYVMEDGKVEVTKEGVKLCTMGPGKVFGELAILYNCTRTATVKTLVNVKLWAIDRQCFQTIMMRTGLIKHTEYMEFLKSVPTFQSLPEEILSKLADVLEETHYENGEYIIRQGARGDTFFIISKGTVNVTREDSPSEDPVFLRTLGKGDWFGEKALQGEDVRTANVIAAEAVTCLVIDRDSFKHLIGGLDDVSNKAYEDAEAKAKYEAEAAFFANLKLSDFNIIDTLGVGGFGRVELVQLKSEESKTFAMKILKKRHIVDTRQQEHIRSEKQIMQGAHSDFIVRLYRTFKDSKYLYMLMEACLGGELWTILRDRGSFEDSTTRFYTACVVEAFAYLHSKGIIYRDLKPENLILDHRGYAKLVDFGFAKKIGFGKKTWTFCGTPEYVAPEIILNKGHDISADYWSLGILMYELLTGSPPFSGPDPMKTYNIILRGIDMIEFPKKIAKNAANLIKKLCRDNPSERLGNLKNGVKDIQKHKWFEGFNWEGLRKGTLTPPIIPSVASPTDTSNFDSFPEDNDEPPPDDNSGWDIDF
Assay: Activation of full length PKG1alpha (unknown origin) using Glass-tide peptide substrate incubated for 120 mins followed by addition of ADP-Glo max reagent incubated for 40 mins
A value of pEC50 is the negative decimal logarithm of a concentration given in moles per litre.

Example results:
OC[C@@H](O[C@H]1CCCN(Cc2ccccc2Cc2nnco2)[C@H]1c1ccccc1)c1cc(Cl)cc(Cl)c1: 5.43
O=C(O)c1cncc(CN2CCC[C@H](OCc3cc(Cl)cc(Cl)c3)[C@@H]2c2ccccc2)c1: 3.93
OC[C@@H](O[C@H]1CCCN(Cc2ccc(-c3nn[nH]n3)cc2)[C@H]1c1ccccc1)c1cc(Cl)cc(Cl)c1: 3.88

Let us move to another entry and its pEC50.
pEC50 reading for O=C(O)c1ccc(CN2CCC[C@H](O[C@H](CO)c3cc(Cl)cc(Cl)c3)[C@@H]2c2ccccc2)cc1 : 4.96

###

Molecular target: cGMP-dependent protein kinase 1 (Homo sapiens, UniProt Q13976)
Experiment: Activation of PKG1alpha (unknown origin) in human HEK293 cellls assessed as […] phosphorylation at Ser 239 incubated for 3 hrs by HTRF assay
Format: cell-based
compounds and their reported log10 EC50
log10 EC50, µM

Please review the entries below; each comes with its answer.
O=C(O)c1ccc(CN2CCC[C@H](O[C@H](CO)c3cc(Cl)cc(Cl)c3)[C@@H]2c2ccccc2)cc1: 1.18
OC[C@@H](O[C@H]1CCCN(Cc2cccc3nonc23)[C@H]1c1ccccc1)c1cc(Cl)cc(Cl)c1: 2.15
OC[C@@H](O[C@H]1CCCN(Cc2ncc[nH]2)[C@H]1c1ccccc1)c1cc(Cl)cc(Cl)c1: 0.94
O=C(O)c1cncc(CN2CCC[C@H](O[C@H](CO)c3cc(Cl)cc(Cl)c3)[C@@H]2c2ccccc2)c1: 1.45
COC(=O)Nn1c(C[C@H]2CCC[C@H](OCc3cc(C(F)(F)F)cc(C(F)(F)F)c3)[C@@H]2c2ccccc2)n[nH]c1=O: 1.08

Switching to the query record.
Given item O=C(O)c1ccc2c(CN3CCC[C@H](O[C@H](CO)c4cc(Cl)cc(Cl)c4)[C@@H]3c3ccccc3)c[nH]c2c1 , the value recorded as its log10 EC50 is 2.15
